Hey, just so you know, these numbers are from paper PMC2819846.

System: Salmonella TA100
assay-text: Salmonella plate-incorporation mutagenicity assay, strain TA100
Format: cell-based
condition-set: TA100 +S9, Test 4, 0.5 µg/plate; zero-dose 112/140/115
property-measured: Rev/plate

QUERY: Item O=S1(=O)C=Cc2c1ccc1ccc3ccccc3c21 [P[3,4-b]T sulfone, Phenanthro[3,4-b]thiophene sulfone] has what recorded Rev/plate?
RESULT: 453/514

QUERY: Okay, and c1ccc2c(c1)ccc1ccc3sccc3c12 [P[3,4-b]T, Phenanthro[3,4,-b]thiophene] ?
RESULT: 333/364

QUERY: Another compound: O[C@@H]1C=Cc2c(ccc3ccc4ccccc4c23)[C@H]1O (racemic) [B[c]P 3,4-diol]
RESULT: 328/304

QUERY: Also, O[C@@H]1C=Cc2c(ccc3ccc4ccsc4c23)[C@H]1O (racemic) [P[4,3-b]T 8,9-diol] please.
RESULT: 305/312

====

System: Salmonella TA98
assay-text: Salmonella plate-incorporation mutagenicity assay, strain TA98, with S9 mix
Assay type: cell-based
condition-set: TA98 +S9, Test 1, 80 µg/plate; zero-dose 33/40/39
property-measured: Rev/plate

QUERY: Query: Rev/plate; subject: O[C@@H]1C=Cc2c(ccc3ccc4ccsc4c23)[C@H]1O (racemic) [P[4,3-b]T 8,9-diol]
RESULT: 578 rev/plate

QUERY: Repeat with c1ccc2c(c1)ccc1ccc3sccc3c12 [P[3,4-b]T, Phenanthro[3,4,-b]thiophene]
RESULT: 55 rev/plate

QUERY: Then this molecule: c1ccc2c(c1)ccc1ccc3ccccc3c12 [B[c]P, Benzo[c]phenanthrene]
RESULT: 35 rev/plate

QUERY: // query: O[C@@H]1c2ccccc2-c2c(ccc3ccccc23)[C@H]1O (racemic) [B[c]P 5,6-diol]
RESULT: 40 rev/plate

====

Test system: Salmonella TA104
assay-text: Salmonella plate-incorporation mutagenicity assay, strain TA104, with S9 mix
Assay type: cell-based
condition-set: TA104 +S9, Test 2, 1 µg/plate; zero-dose 276/260/270
property-measured: Rev/plate

QUERY: State the recorded Rev/plate for this entry: Nc1ccc2cc3ccccc3cc2c1 [2-aminoanthracene, reference compound]
RESULT: 983/956

QUERY: Repeat for the following compound: O[C@@H]1C=Cc2c(ccc3ccc4sccc4c23)[C@H]1O (racemic) [P[3,4-b]T 8,9-diol]
RESULT: 213/673

QUERY: Same read-out for c1ccc2c(c1)ccc1ccc3ccsc3c12 [P[4,3-b]T, Phenanthro[4,3-b]thiophene] ?
RESULT: 392/313

QUERY: Repeat for the following compound: c1ccc2c(c1)ccc1ccc3ccccc3c12 [B[c]P, Benzo[c]phenanthrene]
RESULT: 504/506

QUERY: Then this compound: c1ccc2c(c1)ccc1ccc3sccc3c12 [P[3,4-b]T, Phenanthro[3,4,-b]thiophene]
RESULT: 461/542

====

Test system: Salmonella TA100
assay-text: Salmonella plate-incorporation mutagenicity assay, strain TA100
Assay type: cell-based
condition-set: TA100 +S9, Test 1, 20 µg/plate; zero-dose 99/110/110
property-measured: Rev/plate
Remember to follow the number with its unit.

QUERY: Query: Rev/plate; subject: O[C@@H]1C=Cc2c(ccc3ccc4sccc4c23)[C@H]1O (racemic) [P[3,4-b]T 8,9-diol]
RESULT: 995 rev/plate

QUERY: Now try O[C@@H]1C=Cc2c(ccc3ccc4ccsc4c23)[C@H]1O (racemic) [P[4,3-b]T 8,9-diol] .
RESULT: 1175 rev/plate

QUERY: Follow-up item: O[C@@H]1C=Cc2c(ccc3ccc4ccccc4c23)[C@H]1O (racemic) [B[c]P 3,4-diol]
RESULT: 942 rev/plate

QUERY: Here is the next compound: O[C@@H]1c2ccccc2-c2c(ccc3ccccc23)[C@H]1O (racemic) [B[c]P 5,6-diol]
RESULT: 192 rev/plate

QUERY: What do we get for c1ccc2c(c1)ccc1ccc3ccccc3c12 [B[c]P, Benzo[c]phenanthrene] ?
RESULT: 503 rev/plate

QUERY: Then this compound: O[C@@H]1c2ccccc2-c2c(ccc3sccc23)[C@H]1O (racemic) [P[3,4-b]T 6,7-diol]
RESULT: 1052 rev/plate

QUERY: // query: O[C@@H]1c2ccccc2-c2c(ccc3ccsc23)[C@H]1O (racemic) [P[4,3-b]T 6,7-diol]
RESULT: 127 rev/plate

QUERY: Now try c1ccc2c(c1)ccc1ccc3ccsc3c12 [P[4,3-b]T, Phenanthro[4,3-b]thiophene] .
RESULT: 125 rev/plate
